test system: Spodoptera frugiperda; assay: Antifeedant activity against Spodoptera frugiperda (fall armyworm) larvae fed on artificial diet containing compound at 100 ppm by two choice assay; format: functional
measurement.kind: AFI
Show the value, then the unit it is measured in.

AFI for CC(=O)OC[C@@]12[C@@H](OC(C)=O)C[C@@H](C)[C@](C)(C[C@H](O)c3ccoc3)[C@H]1CCC[C@]21CO1 ?
94%

Item CC(=O)OC[C@@]12[C@@H](OC(C)=O)C[C@@H](C)[C@](C)(CCC3=CC(=O)OC3)[C@H]1CCC[C@]21CO1 has what recorded AFI?
47%

Entry CC(=O)OC[C@@]12[C@@H](OC(C)=O)C[C@@H](C)[C@](C)([C@@H]3C[C@H]4C=CO[C@H]4O3)[C@H]1CCC[C@]21CO1 has what AFI?
78%

Looking for the measured AFI of C[C@@H]1CC(O[Si](C)(C)C(C)(C)C)CC[C@@]1(C)CCC1=CC(=O)OC1 (stereo not given in full) , can you help?
12%

// AFI lookup, key: CC(=O)OC[C@@]12[C@@H](OC(C)=O)C[C@@H](C)C(C)(C)[C@H]1CCC[C@]21CO1
15%

###

test system: Pieris brassicae; experiment: Antifeedant activity against fifth-instar larval stage of Pieris brassicae fed on compound-treated cabbage leaf disks at 5 mM by two choice assay; format: functional
Simple rule here: AFI less than 30% is Condition met, otherwise Condition not met.

Is 30% strictly greater than the compound's reported AFI? compound: O=C1CC(CCC2CCCCC2)CO1 (configuration not stated)
Condition met

Criterion: AFI strictly below 30%. Is it met by CC1(C)OC(=O)CC1(O)CCc1ccccc1 (configuration not stated) ?
Condition not met

Please check: AFI for CC1(C)OC(=O)CC1(O)CCC1CCCCC1 (configuration not stated) , strictly under 30% or not?
Condition met

Please let me know if O=C1C=C(CCC2CCCCC2)CO1 shows AFI below 30%.
Condition not met

is_below(AFI, 30%) for CC1(C)OC(O)CC1(O)CCc1ccccc1 (configuration not stated) ?
Condition met

For CCCCCCC1(O)CC(=O)OC1(C)C (configuration not stated) , is the recorded AFI below the cut-off of 30%?
Condition met

Would you kindly verify if AFI of CC1(C)OC(=O)C=C1CCc1ccccc1 is strictly less than 30%?
Condition not met

Could you please tell me whether AFI recorded for CC1(C)OC(=O)C=C1CCC1CCCCC1 is less than 30%?
Condition met

Is 30% strictly greater than the compound's reported AFI? compound: CCCCCCC1=CC(=O)OC1(C)C
Condition met

Is it true that AFI reported for COC1CC(O)(CCc2ccccc2)C(C)(C)O1 (configuration not stated) is less than 30%?
Condition met

# strict comparison: is reported AFI < 30%? input = CC1(C)OCCC1(O)CCc1ccccc1 (configuration not stated)
Condition met

Problem: For the compound O=C1CC(O)(CCC2CCCCC2)CO1 (configuration not stated) , is AFI under 30%?
Condition met
